Record form. Attribute: %Inh. Fill in for each entry.
- System: BMPR1B;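 further: KINOMEscan kinase panel screen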
- details: concentration: 1 μM, replicates: in singlicate; n = 1
Give bare numbers, in %.

Example entries begin here.
CS(=O)(=O)CCNCc1ccc(-c2ccc3ncnc(Nc4ccc(OCc5ccccc5)c(Cl)c4)c3c2)o1.Cl [GW574783] :: 0
Cl.Fc1ccccc1COc1ccc(Nc2ncnc3ccc(-c4nnc(C(F)(F)F)o4)cc23)cc1Cl [GW424170] :: 0
Nc1nc(-c2ccc3c(N)n[nH]c3c2)cc(N2CCCCC2)n1 [GSK2228768] :: 0
Clc1cccc(-c2nc(Nc3ccncc3)c3ccccc3n2)c1 [GW873004] :: 4
N#Cc1ccc(Oc2ccc(Nc3ncnc4cc[nH]c34)cc2Cl)cc1 :: 8
Cc1cccc(-c2nc(Nc3ccc4[nH]nnc4c3)c3ccccc3n2)n1 [GW867587] :: 0
Cc1ccc(NC(=O)c2cccc(C#N)c2)cc1-c1ccc(C(=O)Nc2ccncc2)cc1 [GSK1398463] :: 0

Below: the item to evaluate.
For the compound shown here, FC(F)(F)c1ccc(-c2cc(-c3c[nH]nc3-c3ccccn3)ccn2)cc1 [GW599550] , give the reported %Inh. 0
